Values compiled from paper PMC7957565.

Target: AChE (from electric eel) (Electrophorus electricus, UniProt O42275)
Construct: purchased Sigma-Aldrich
Sequence (O42275 24-633): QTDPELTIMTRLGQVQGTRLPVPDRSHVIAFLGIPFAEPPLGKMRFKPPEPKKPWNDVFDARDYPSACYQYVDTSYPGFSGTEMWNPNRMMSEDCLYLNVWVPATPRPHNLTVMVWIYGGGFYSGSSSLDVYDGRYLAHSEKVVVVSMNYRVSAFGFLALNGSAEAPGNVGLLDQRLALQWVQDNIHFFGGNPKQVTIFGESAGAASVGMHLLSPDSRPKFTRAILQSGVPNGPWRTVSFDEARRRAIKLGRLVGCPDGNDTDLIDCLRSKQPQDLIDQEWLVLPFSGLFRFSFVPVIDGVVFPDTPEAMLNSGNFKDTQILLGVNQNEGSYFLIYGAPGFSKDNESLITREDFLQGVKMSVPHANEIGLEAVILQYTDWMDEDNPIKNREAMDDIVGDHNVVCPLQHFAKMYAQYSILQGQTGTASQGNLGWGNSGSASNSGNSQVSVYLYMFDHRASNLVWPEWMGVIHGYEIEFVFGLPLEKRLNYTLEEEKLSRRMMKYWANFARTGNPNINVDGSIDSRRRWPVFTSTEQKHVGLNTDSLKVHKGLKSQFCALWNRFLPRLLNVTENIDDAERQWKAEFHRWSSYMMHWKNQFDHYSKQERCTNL
Assay: biochemical
Conditions: eeAChE; compound at 100 μM; read-out: AChE inhibition rate (%) in 100 μM
Classification field: enter Y for inhibition at 100 µM values not below 40%, N for values below it.

>  <compound>
COc1ccc2[nH]c3c4c(c(C=O)cc3c2c1)OC(C)(C)C=C4 [Clau F, Claulansine F, reference compound]

>  <cat>
N

$$$$
>  <compound>
CC1(C)C=Cc2c(c(/C=C/C(=O)NC3CCN(Cc4ccccc4F)CC3)cc3c2[nH]c2ccc(C(C)(C)C)cc23)O1

>  <cat>
N

$$$$
>  <compound>
Cc1ccccc1CN1CCC(NC(=O)/C=C/c2cc3c([nH]c4ccc(C(C)(C)C)cc43)c3c2OC(C)(C)C=C3)CC1

>  <cat>
Y

$$$$
>  <compound>
COc1ccc2[nH]c3c4c(c(/C=C/C(=O)NC5CCN(Cc6ccccc6C)CC5)cc3c2c1)OC(C)(C)C=C4

>  <cat>
N

$$$$
>  <compound>
COc1ccc2[nH]c3c4c(c(/C=C/C(=O)NC5CCN(Cc6ccccc6)CC5)cc3c2c1)OC(C)(C)C=C4

>  <cat>
N

$$$$
>  <compound>
CC1(C)C=Cc2c(c(/C=C/C(=O)NC3CCN(Cc4ccccc4Cl)CC3)cc3c2[nH]c2ccc(C(C)(C)C)cc23)O1

>  <cat>
Y

$$$$
>  <compound>
COc1ccc2[nH]c3c4c(c(/C=C/C(=O)NC5CCN(Cc6ccccc6F)CC5)cc3c2c1)OC(C)(C)C=C4

>  <cat>
N

$$$$
>  <compound>
Cc1cc2c([nH]c3ccc(C(C)(C)C)cc32)c2c1OC(C)(C)C=C2 [CZ-7, reference compound]

>  <cat>
N

$$$$
